The entries below are paired with their reported pKd.
assayed.target: HLA-B*35:01
assay.comment: IEDB peptide-MHC binding, purified MHC/competitive/radioactivity; filed as Kd, often an IC50 or EC50 that approximates it; bounds were set here for any values at or beyond the usual limits of such assays
measurement.parameters: source organism: Dengue virus 4 Philippines/H241/1956
Answer as the number alone; pKd is minus log10 of concentration in mol/L.

TPEGIIPTLF
7.03
LAIMAVFKM
7.65
APSTGSASSM
6.42

Query: Need pKd, item LAMTDTTPF
Response: 8.78

----------
assayed.target: HLA-A*01:01
assay.comment: IEDB peptide-MHC binding, purified MHC/direct/fluorescence; filed as Kd, often an IC50 or EC50 that approximates it; bounds were set here for any values at or beyond the usual limits of such assays
measurement.parameters: source organism: Influenza A virus (A/duck/Mongolia/47/2001(H7N1))
pKd: −log10 of the molar value.
observed.property: pKd

Query: Need pKd, item FLKDVMESM
Response: ≤ 4.70

----------
assayed.target: HLA-B*27:05
assay.comment: IEDB peptide-MHC binding, purified MHC/competitive/fluorescence; bounds were set here for any values at or beyond the usual limits of such assays
measurement.parameters: source organism: hepatitis C virus genotype 1a
observed.property: IC50 (nM)
Give your result in nM as a bare value.

Query: Need IC50, item GRATICGKY
Response: 122

----------
assayed.target: HLA-B*58:01
assay.comment: IEDB peptide-MHC binding, purified MHC/direct/fluorescence; filed as Kd, often an IC50 or EC50 that approximates it; bounds were set here for any values at or beyond the usual limits of such assays
measurement.parameters: source organism: Orthohantavirus hantanense
observed.property: Kd

Query: Need Kd, item IRKPKHLYV
Response: ≥ 20 µM

----------
assayed.target: HLA-B*27:05
assay.comment: IEDB peptide-MHC binding, purified MHC/direct/fluorescence; filed as Kd, often an IC50 or EC50 that approximates it; bounds were set here for any values at or beyond the usual limits of such assays
measurement.parameters: source organism: Influenza A virus (A/quail/Hong Kong/FY298/00(H9N2))
observed.property: Kd

Query: Need Kd, item ALTLNTMTK
Response: ≥ 20 µM

----------
assayed.target: HLA-A*31:01
assay.comment: IEDB peptide-MHC binding, purified MHC/competitive/radioactivity; filed as Kd, often an IC50 or EC50 that approximates it; bounds were set here for any values at or beyond the usual limits of such assays
measurement.parameters: source organism: Dengue virus 2 Jamaica/1409/1983
The entries below are paired with their reported Kd.
Give your result in nM as a bare value.

ITWIGMNSR
11.2

# evaluate next
Query: Need Kd, item SIMKNTTNTR
Response: 672

----------
assayed.target: HLA-B*48:01
assay.comment: IEDB peptide-MHC binding, purified MHC/direct/fluorescence; filed as Kd, often an IC50 or EC50 that approximates it; bounds were set here for any values at or beyond the usual limits of such assays
measurement.parameters: source organism: West Nile virus
observed.property: Kd

Query: Need Kd, item TRAVGKPLL
Response: ≥ 20 µM

----------
assayed.target: HLA-C*12:03
assay.comment: IEDB peptide-MHC binding, purified MHC/direct/fluorescence; filed as Kd, often an IC50 or EC50 that approximates it; bounds were set here for any values at or beyond the usual limits of such assays
measurement.parameters: source organism: Coxiella burnetii RSA 493
observed.property: pKd
Answer as the number alone; pKd is minus log10 of concentration in mol/L.

Query: Need pKd, item YMHGSIHEV
Response: 7.59

----------
assayed.target: HLA-C*07:02
assay.comment: IEDB peptide-MHC binding, purified MHC/direct/fluorescence; filed as Kd, often an IC50 or EC50 that approximates it; bounds were set here for any values at or beyond the usual limits of such assays
measurement.parameters: source organism: Escherichia coli O157:H7 str. EDL933
observed.property: pKd
Answer as the number alone; pKd is minus log10 of concentration in mol/L.

Query: Need pKd, item RMMGVKYLM
Response: 6.07

----------
assayed.target: HLA-A*68:01
assay.comment: IEDB peptide-MHC binding, purified MHC/competitive/radioactivity; filed as Kd, often an IC50 or EC50 that approximates it; bounds were set here for any values at or beyond the usual limits of such assays
measurement.parameters: source organism: Dengue virus 3 Martinique/1243/1999
observed.property: Kd (nM)
Give your result in nM as a bare value.

Query: Need Kd, item EVYTQLCDHR
Response: 14.3

----------
assayed.target: HLA-A*02:01
assay.comment: IEDB peptide-MHC binding, purified MHC/direct/fluorescence; filed as Kd, often an IC50 or EC50 that approximates it; bounds were set here for any values at or beyond the usual limits of such assays
measurement.parameters: source organism: Sudan ebolavirus - Uganda (2000)
observed.property: Kd (nM)
Give your result in nM as a bare value.

Query: Need Kd, item SLTDRELLL
Response: 1.3

----------
assayed.target: HLA-A*31:01
assay.comment: IEDB peptide-MHC binding, purified MHC/competitive/radioactivity; filed as Kd, often an IC50 or EC50 that approximates it; bounds were set here for any values at or beyond the usual limits of such assays
measurement.parameters: source organism: Mammarenavirus machupoense
observed.property: Kd

Query: Need Kd, item EKFGHLCKYH
Response: ≥ 70 µM

----------
assayed.target: HLA-B*57:01
assay.comment: IEDB peptide-MHC binding, purified MHC/direct/fluorescence; filed as Kd, often an IC50 or EC50 that approximates it; bounds were set here for any values at or beyond the usual limits of such assays
measurement.parameters: source organism: Mycobacterium tuberculosis
pKd: −log10 of the molar value.
observed.property: pKd

Query: Need pKd, item RPPMVTSGL
Response: ≤ 4.70

Query: Need pKd, item MPRLSRNAA
Response: ≤ 4.70

----------
assayed.target: HLA-B*35:01
assay.comment: IEDB peptide-MHC binding, purified MHC/competitive/fluorescence; filed as Kd, often an IC50 or EC50 that approximates it; bounds were set here for any values at or beyond the usual limits of such assays
measurement.parameters: source organism: Acinetobacter baumannii
pKd: −log10 of the molar value.
observed.property: pKd

Query: Need pKd, item SIYAGNTPK
Response: ≤ 4.70

----------
assayed.target: HLA-A*24:02
assay.comment: IEDB peptide-MHC binding, purified MHC/direct/fluorescence; filed as Kd, often an IC50 or EC50 that approximates it; bounds were set here for any values at or beyond the usual limits of such assays
measurement.parameters: source organism: Giardia lamblia ATCC 50803
pKd: −log10 of the molar value.
observed.property: pKd

Query: Need pKd, item WSDLNTTDF
Response: ≤ 4.70

----------
assayed.target: HLA-B*51:01
assay.comment: IEDB peptide-MHC binding, purified MHC/direct/fluorescence; filed as Kd, often an IC50 or EC50 that approximates it; bounds were set here for any values at or beyond the usual limits of such assays
measurement.parameters: source organism: Mycobacterium tuberculosis str. Haarlem
observed.property: Kd

Query: Need Kd, item RLGWRTLDF
Response: ≥ 20 µM

----------
assayed.target: HLA-A*02:01
assay.comment: IEDB peptide-MHC binding, purified MHC/direct/fluorescence; filed as Kd, often an IC50 or EC50 that approximates it; bounds were set here for any values at or beyond the usual limits of such assays
measurement.parameters: source organism: Bacillus licheniformis
observed.property: Kd (µM)
Give your result in µM as a bare value.

Query: Need Kd, item RLIWSHHHI
Response: 1.21

----------
assayed.target: HLA-B*18:01
assay.comment: IEDB peptide-MHC binding, purified MHC/direct/fluorescence; filed as Kd, often an IC50 or EC50 that approximates it; bounds were set here for any values at or beyond the usual limits of such assays
measurement.parameters: source organism: Brucella abortus 2308
pKd: −log10 of the molar value.
observed.property: pKd

Query: Need pKd, item RMIESRMSK
Response: ≤ 4.70

----------
assayed.target: HLA-B*51:01
assay.comment: IEDB peptide-MHC binding, purified MHC/competitive/fluorescence; filed as Kd, often an IC50 or EC50 that approximates it; bounds were set here for any values at or beyond the usual limits of such assays
measurement.parameters: source organism: Macaca mulatta
observed.property: Kd

Query: Kd of SAEVVTLWY on HLA-B*51:01?
Response: ≥ 20 µM

----------
The entries below are paired with their reported pKd.
assayed.target: HLA-A*11:01
assay.comment: IEDB peptide-MHC binding, purified MHC/competitive/radioactivity; filed as Kd, often an IC50 or EC50 that approximates it; bounds were set here for any values at or beyond the usual limits of such assays
measurement.parameters: source organism: Dengue virus 2 Jamaica/1409/1983
Answer as the number alone; pKd is minus log10 of concentration in mol/L.

Take a look at these entries with their results.
TAGPWHLGK
7.18
RMLINRFTMK
6.48

# evaluate next
Query: Need pKd, item GSCVTTMAK
Response: 6.94

----------
assayed.target: HLA-A*26:01
assay.comment: IEDB peptide-MHC binding, purified MHC/competitive/fluorescence; filed as Kd, often an IC50 or EC50 that approximates it; bounds were set here for any values at or beyond the usual limits of such assays
measurement.parameters: source organism: Acinetobacter baumannii
pKd: −log10 of the molar value.
observed.property: pKd

Query: Need pKd, item SIYAGNTPK
Response: ≤ 4.70
